src = PubChem BioAssay

test: blockers of RIG-like receptor reporter activation – cell-based, Sendai virus stimulus, luciferase, 10K MLSCN set, TLR/RLR signaling modifier project, primary screen (AID 602276); conditions: HEK293 RL24 IRF3 luciferase reporter, at 10 µM, active compounds read high;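 also: firefly luciferase from ISG56 promoter only with Renilla not read in this screen; 0% = Sendai virus plus DMSO and 100% = medium plus DMSO without virus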
Entries annotated with measured inhibition

{"Molecule": "CC1CCCN(C(=O)c2cc3c(-c4ccc(Cl)cc4)nn(C)c3s2)C1 (stereo unspecified)", "inhibition (%)": 7.9}
{"Molecule": "CCOC(=O)C(CC)Sc1nc2c(c(=O)[nH]c(=O)n2C)n1C/C=C(/C)Cl (stereo unspecified)", "inhibition (%)": 14.5}
{"Molecule": "CN(C)c1ccc(NC(=O)c2ccncc2)c2ccccc12", "inhibition (%)": 15.4}
{"Molecule": "CCOc1ccccc1CNC(=O)CCN1C(=O)COc2ccccc21", "inhibition (%)": 12.2}
{"Molecule": "COc1cc(C(=O)OC(C)CN2CCCC2)cc(OC)c1OC (stereo unspecified)", "inhibition (%)": 5.11}
{"Molecule": "COc1cc(C(c2sc3nc(C)nn3c2O)N2CC(C)CC(C)C2)cc(OC)c1OC (stereo unspecified)", "inhibition (%)": 9.58}
{"Molecule": "CCCNc1nc(N2CCOCC2)nc(N2CCOCC2)n1", "inhibition (%)": -9.95}
{"Molecule": "CC(C)(C)C(=O)CCN1C(=O)C2(OCCO2)c2ccccc21", "inhibition (%)": 11.4}
{"Molecule": "CCOC(=O)c1sc2cccc(F)c2c1N", "inhibition (%)": -3.55}
{"Molecule": "O=C(NCCCCNC(=O)c1c(F)c(F)c(F)c(F)c1F)c1c(F)c(F)c(F)c(F)c1F", "inhibition (%)": 12.8}
{"Molecule": "CCOC(=O)COc1ccc(C2NC(C(=O)O)CS2)cc1 (stereo unspecified)", "inhibition (%)": 12.5}
{"Molecule": "C=CCn1c(-c2ccccc2)c[nH]c1=S", "inhibition (%)": -33.4}
{"Molecule": "COc1ccc(C)cc1S(=O)(=O)N1CCN(S(=O)(=O)c2cc(C)ccc2OC)CC1", "inhibition (%)": -3.93}
{"Molecule": "O=C(O)c1cccc(NC(=O)C23CC4CC(C2)CC(n2cnc(Cl)n2)(C4)C3)c1", "inhibition (%)": 9.34}
{"Molecule": "O=C(NCc1cccs1)C1CCN(S(=O)(=O)c2cccs2)CC1", "inhibition (%)": 7.22}
{"Molecule": "CCOc1ccc(NC(=O)c2ccccc2O)cc1", "inhibition (%)": -59.1}
{"Molecule": "Cc1cccc(C2CC(c3ccc(Cl)cc3)Nc3nc(N)nn32)c1 (stereo unspecified)", "inhibition (%)": 4.61}
{"Molecule": "CC1(C)NC(=O)N(CC(O)CN2CCCCC2)C1=O (stereo unspecified)", "inhibition (%)": -4.08}
{"Molecule": "COc1cc(C(=O)N2CCN(c3cc(Cl)ccc3Cl)CC2)cc(OC)c1OC", "inhibition (%)": 12}
{"Molecule": "c1cc(-c2nc3ccccc3o2)nc(-c2nc3ccccc3o2)c1", "inhibition (%)": 16.6}
{"Molecule": "O=C(NCCc1ccccn1)c1ccc(COc2ccccc2)o1", "inhibition (%)": 3.41}
{"Molecule": "COc1ccc(C(c2nnnn2C2CCCC2)N2CCN(C3CCCC3)CC2)cc1OC (stereo unspecified)", "inhibition (%)": 12.8}
{"Molecule": "COc1ccccc1N1CC(O)=C(c2nc3ccccc3c(=O)[nH]2)C1=N", "inhibition (%)": 11.7}
{"Molecule": "COc1ccccc1NC(=O)c1ccc(COc2ccccc2OC)o1", "inhibition (%)": 12.4}
{"Molecule": "CCOC(=O)C1CCN(S(=O)(=O)c2cccc(-c3csc(C)n3)c2)CC1", "inhibition (%)": 14.1}
{"Molecule": "Cc1cc(=O)n(-c2ccc3ccccc3n2)[nH]1", "inhibition (%)": 17.4}
{"Molecule": "O=C(NCCN1C(=O)C2C3C=CC(C3)C2C1=O)N1CCCCC1 (stereo unspecified)", "inhibition (%)": -6.07}
{"Molecule": "COc1cc(/C=N/n2cnnc2)ccc1OCC(=O)N1CCOCC1", "inhibition (%)": 5.73}
{"Molecule": "CCN1CCN(c2ncnc3c2oc2nc(C)c4c(c23)CC(C)(C)OC4)CC1", "inhibition (%)": -6.53}
{"Molecule": "O=C(CN(C(=O)CCNC(=O)c1ccco1)c1ccccc1)NC1CCCC1", "inhibition (%)": -10.7}
{"Molecule": "CSCSC1=C(C#N)C(c2ccc(Cl)cc2)C(C(C)=O)=C(C)N1 (stereo unspecified)", "inhibition (%)": 10.5}
{"Molecule": "Cc1cccc(C(=O)N2CCC(n3nnc4cc(F)ccc43)CC2)c1", "inhibition (%)": 5.99}
{"Molecule": "c1ccc(-c2cnc(CSc3ncnc4sccc34)o2)cc1", "inhibition (%)": -9.6}
{"Molecule": "COc1cccc(C(=O)NCc2nnc(SCC(=O)Nc3nccs3)n2-c2ccccc2)c1", "inhibition (%)": 10.5}
{"Molecule": "O=C(C1CCCN(S(=O)(=O)c2cccc3nonc23)C1)N1CCC(Cc2ccccc2)CC1 (stereo unspecified)", "inhibition (%)": 7.74}
{"Molecule": "CCN1CCN(C(c2cccs2)C(C)NC(=O)c2ccccc2)CC1 (stereo unspecified)", "inhibition (%)": 8.51}
{"Molecule": "CCOc1ccc(C(C)=O)cc1COc1ccc(-n2cnnn2)cc1", "inhibition (%)": 1.13}
{"Molecule": "COc1c(S(=O)(=O)n2nc(C)cc2C)ccc(Cl)c1Cl", "inhibition (%)": -8.21}
{"Molecule": "O=C(OCC(=O)c1ccccc1Br)c1ccccn1", "inhibition (%)": 3.27}
{"Molecule": "C/C(=N\\O)C(C)/[N+]([O-])=C/c1nc(C)c(C)n1O (stereo unspecified)", "inhibition (%)": 15.5}
{"Molecule": "COc1ccc(C(=O)N2CCN(C(=O)c3ccco3)CC2)cc1OC", "inhibition (%)": 13.2}
{"Molecule": "Cc1ccccc1C(=O)NC1CCN(Cc2nnnn2CCc2ccccc2)CC1", "inhibition (%)": 5.02}
{"Molecule": "CC1CCCCC1NC(=O)C1CCN(C(=O)NC2CCCCC2)CC1 (stereo unspecified)", "inhibition (%)": 13.5}
{"Molecule": "Cn1nnnc1SCC(=O)NC1CCCCC1", "inhibition (%)": 5.19}
{"Molecule": "CCN(CC)S(=O)(=O)c1ccc(F)cc1", "inhibition (%)": 13.9}
{"Molecule": "CC(=O)NC(Cc1ccccc1)C(=O)NC1CCN(C(=O)c2cnccn2)CC1 (stereo unspecified)", "inhibition (%)": 12.1}
